Origin of measurements: ChEMBL document CHEMBL5291721

Please consider the recorded AC50 for Growth hormone secretagogue receptor type 1 (Homo sapiens, UniProt Q92847) in what follows.

Look at this molecule and give its reported AC50. C=C[C@@]1(C)CC(=O)[C@]2(O)[C@@]3(C)[C@@H](O)CCC(C)(C)[C@@H]3[C@H](O)[C@H](OC(C)=O)[C@@]2(C)O1 [COLFORSIN] > 30 µM

# lookup: AC50 of COc1ccccc1Oc1c(NS(=O)(=O)c2ccc(C(C)(C)C)cc2)nc(-c2ncccn2)nc1OCCO [BOSENTAN] > 30 µM

I am curious: what AC50 value has been reported for C=C[C@H]1C[N@@]2CC[C@H]1C[C@@H]2[C@@H](O)c1ccnc2ccc(OC)cc12 [QUINIDINE] ? > 30 µM

Record request: AC50 value, item CC(C)NCC(O)c1ccc(O)c(O)c1 (stereo not drawn) [ISOPROTERENOL] > 30 µM

Which AC50 is listed for CC(C(=O)O)c1ccc(-c2ccccc2)c(F)c1 (stereo not drawn) [FLURBIPROFEN] ? > 10 µM

Suppose we examine the molecule CCN(CC)CCN1C(=O)CN=C(c2ccccc2F)c2cc(Cl)ccc21 [FLURAZEPAM] ; what AC50 value has been reported? 22.9 µM

Quick check: AC50 of CC(=O)SC[C@@H](C)C(=O)N1CCC[C@H]1C(=O)N[C@@H](Cc1ccccc1)C(=O)O ? > 30 µM

Quick one: AC50 for Nc1cc(-c2ccncc2)c[nH]c1=O [INAMRINONE] ? > 30 µM

----------
measuredProperty: AC50

Entry O=C1CN=C(c2ccccn2)c2cc(Br)ccc2N1 , system Glucocorticoid receptor (Homo sapiens): what AC50 was measured? > 10 µM

Recall the recorded AC50 for C[C@H](Cc1ccc(O)c(O)c1)[C@@H](C)Cc1ccc(O)c(O)c1 with Glucocorticoid receptor (Homo sapiens) and state it. 8.7 µM

Recorded AC50 for CC1OC2(CS1)CN1CCC2CC1 (configuration not stated) with Glucocorticoid receptor (Homo sapiens), please? > 10 µM

Given the entry CCCC(CCC)C(N)=O [VALPROMIDE] , what AC50 was observed with Glucocorticoid receptor (Homo sapiens)? > 30 µM

Any idea what AC50 came out for CC(CCc1ccc(O)cc1)NCCc1ccc(O)c(O)c1 (configuration not stated) on Glucocorticoid receptor (Homo sapiens)? > 30 µM

Find AC50 (Glucocorticoid receptor (Homo sapiens)) for the entry COc1ccc2nc3cc(Cl)ccc3c(Nc3cc(CN4CCCC4)c(O)c(CN4CCCC4)c3)c2n1 > 30 µM

Query the reported AC50 for Glucocorticoid receptor (Homo sapiens); item: CCCCCCCCCCCCCCCCCCCCCC(=O)Nc1ccn([C@@H]2O[C@H](CO)[C@@H](O)[C@@H]2O)c(=O)n1 > 30 µM

----------
Assign AC50 to each entry below.

Tell me reported AC50 for CC(S)C(=O)NCC(=O)O (centres undefined) , tested with Vasopressin V1a receptor (Homo sapiens). > 30 µM

What measured AC50 is associated with CC(C)[C@H](N)C(=O)OCC(CO)OCn1cnc2c(=O)nc(N)[nH]c21 (some centres undefined) on Vasopressin V1a receptor (Homo sapiens)? > 30 µM

Hi! What's the reported AC50 for COc1cc(N)c(Cl)cc1C(=O)NC1CCN(Cc2ccccc2)CC1 [CLEBOPRIDE] on Vasopressin V1a receptor (Homo sapiens)? > 30 µM

Test system Vasopressin V1a receptor (Homo sapiens); read-out AC50; what value for CC1OC2(CS1)CN1CCC2CC1 (centres undefined) ? > 10 µM
